# Tested on: C. difficile 630Δerm
# ASSAY EXPLANATION: Toxicity growth curves (OD590 nm) of C. difficile monoculture in minimal media
# Format: cell-based, Clostridioides difficile
# TEST CONDITIONS: compound 6.6 mM in MM with 1% DMSO, 8-hour growth curve, FIGS. 1a to 5b
RECORDED ENDPOINT: effect on the growth of C. difficile (growth curve, OD590 nm)

[[record]]
structure_smiles_string = "O=C(O)c1ccc(O)cc1"
target_system = "C. difficile 630Δerm"
result = "no effect on the growth"

[[record]]
structure_smiles_string = "OCCc1ccc(O)cc1"
target_system = "C. difficile 630Δerm"
result = "toxic"

[[record]]
structure_smiles_string = "O=C(O)CCc1ccc(O)cc1"
target_system = "C. difficile 630Δerm"
result = "no effect on the growth"

[[record]]
structure_smiles_string = "NC(=O)Cc1ccc(O)cc1"
target_system = "C. difficile 630Δerm"
result = "no effect on the growth"

